Test: label from the status in PepcDB records
assayMetric: protein production

{"columns": ["inputSequence", "result"],
 "data": [
  ["IPKHPDSEAVAPDPFNPAATQLLDDTSWVLSAWKQADGTARAVPSADQGAPITLTLSTSTGQRHASGFSGCNRYMGSYALKDGKLSFGTLGGTRMACMTPGGQIEGAYLNALTHIDRTGVQMRAPQQMQLVLDNGDTLTFDRSTR", "not failed"],
  ["MKRTHLASFSNRDKTQEEEGEDGNGDNRVIMNHYKNYEAGLIPWPPKNYTCSFCRREFRSAQALGGHMNVHRRDRAKLRQIPSWLFEPHHHTPIANPNPNFSSSSSSSTTTAHLEPSLTNQRSKTTPFPSARFDLLDSTTSYGGLMMDREKNKSNVCSREIKKSAIDACHSVRCEISRGDLMNKKDDQVMGLELGMSLRNPNQVLDLELRLGYL", "not failed"]
]}

---

Assay: label from the status in PepcDB records
assayMetric: protein production

Take a look at these entries with their results.
{"columns": ["inputSequence", "result"],
 "data": [
  ["MRYGLRVEAITLWILGGLASLEAIPKEWNRELVIALAGPAVSILTGLACYAALFALPASAQVTLFVIGWLAVTNIFLAVFNMLPAFPMDGGRVLRALLARTRPYATATRIAARIGTGFAVLFAVVGVLSFSPLLLLLALFVYGAASSESRTVALAALLDGLSVDDVASPLDATIEANASVEDLVDRMFADRRTEFAVTRGGDVVGVVTVDDFRELSKAEREADTVADLMEADLPRFPAAMAAFDALVELDTARASAAFVDGPEGTRVVSRDDFSSAMEMRRLVDSPEPF", "failed"],
  ["TNLAALSLDSLVAPDTPIQFDIISPVCEDQPGQAKAFGQGGRRTNPFGESGGSTKSETEDSILHQLFIVRFLGSMEVKSDDHPDVVYETMRQILAARAIHNIFRMTESHLLVTCDCLKLIDPQTQVTRLTFPLPCVVLYATHQENKRLFGFVLRTSSGRSESNLSSVCYIFESNNEGEKICDSVGLAKQIAL", "failed"],
  ["FGAEFSSEACRELGFSSNLLCSSCDLLGQFNLLQLDPDCRGCCQEEAQFETKKLYAGAILEVCGUKLGRFPQVQAFVRSDKPKLFRGLQIKYVRGSDPVLKLLDDNGNIAEELSILKWNTDSVEEFLSEKLERI", "failed"],
  ["QKYQALLANNVENTAKEALHQLAYTGREYNNIQDQIETISDLLGHSQSLYDYLREPSKANLTILENMWSSVARNQKLYKQIRFLDTSGTEKVRIKYDFKTSIAGPSLILRDKSAREYFKYAQSLDNEQISAWGIELERDKGELVYPLSPSLRILMPISVNDVRQGYLVLNVDIEYLSSLLNYSPVRDFHIELVKHKGFYIASPDESRLYGDIIPERSQFNFSNMYPDIWPRVVSEQAGYSYSGEHLIAFSSIKFVSNEPLHLIIDLSNEQLSKRATRDINDLIQES", "not failed"]
]}

Looking for the measured protein production of `MFRALKDKKRFIRNLILTFIIFLFIFLLYQFEAFRDIIFIVLVSGIFAYILKPLYRFLCERTKINKNFLAMAIVLSVIFLILFFLTVLIPSMFKEGESFDGLINGIEFFINDLIMKMKFMELGIFDVIEAQVTEKLNILLVSFATSIINNLISFSENILAFAVIPVLAYYFLAYGDLLSNKFLYCCPMEKRALLKNLGRDVDKVLGKYILGQLLLSLLVGVMTFIGMLILGIKFPLLLAFLNALLNIIPYFGAVLGAIPAIVVALVEGPNKILWVILTFLIIQQIEGNLIAPKITAESIDMHPILIIILLLIGEQIGGLLGMVFIVPIAVVIKVLFDDWDYYMFL` , can you help? failed

Looking for the measured protein production of `MAWFLLVIAGIEEIIAAIAMKYIDGTRKKWPIIVMTVGFGLSFYCLSQAMIVLPAGVAYAVWTGIGSIGVSAVGLIWFKERFQLSQVISLCLILAGVIGLRLTSSS` , can you help? failed

Looking for the measured protein production of `QPTIVLDTDYNIIAANTAYQRQFGVAGKPHVGAKCYRVSHQFAVPCDQAGEHCPMRKAHDSRVPERMLHIHHTPRGPEHVDVELRPIIGQDGTVVAYVERLSSVAVASVQPQQKG` , can you help? failed

Looking for the measured protein production of `MDVPTPPPAEIYLAIQLPNPLSILVNYLPVSVTPIETLRGLVSTLEPTAINMDEFMTWPDFVLPETPFRTYFTLLLERGARPAIYLEGVRLACNFITVAHGLTMLSSISPIDAYACFSHGLFLTATGNGREVEAVNATFWDLVPSFEAANTVGELVMYHISRLHAEGTRLWNRSWRFVVSPDCLGRCSYGACCRNCFFYWYARELCIFY` , can you help? failed

Looking for the measured protein production of `MLRQSMNDYFEQPWYLTYADAERLSDLRDETLTLRDEEVTGHVPTEVEYEELQQVNDELAQRIGDMLKVHKEQGAAIDLALVLRDYLASHPRTHHFDLARMVVDQAVRLGYSESDYRAIQPDWTAINDFGAKVQANVIDRYLEHHHHHH` , can you help? not failed

Looking for the measured protein production of `MSSPVVEIQIWSDLICPWCWIGKRRLERALRNSSLFADIKVRHRAFRLMPELIPLPVIDVLQQRYGGSAEQIVAIQQRIEKIAAEESLIYRLVGTQGADTLQAHRLLYLAHRQGLQEVLLERFYSAYFSEGTPIFDTDTLAPLALDVGLERTAVAALFAGQDFIAEIEDDQRRLQRYGANGVPFFLMDGRIAVNGAQPIEAFSDALAQLNADAASQSAFFLR` , can you help? failed

Looking for the measured protein production of `MLEQGLDYVVKLAKSKKQILDANPMQYFIRAALAGIYIGFIIVLCFKLGNFFHIADSPATYLAASMFFGIALVLIIYGGAELFTGNTMYFTVATLRKETTISDTLRNWVACYAGNLAGALFFALLFYATGIFEAIDHGHLMNKVVEGKMNTPTMQLFFKAILCNWLVCLACFLPSQVKGDTAKIMIMMLLVFTFFLSGYEHSIANLSLFALSLVSPHPETISFAGAIHNLIPVTIGNIIGGSVFVGMVYHYLTKKVPDVKQEETELVAAQQEEIIPLQAHMKH` , can you help? failed

Looking for the measured protein production of `MSNNNKYFTITKKQYKKMRRNKIELLFNVKVLKKKNGRQKFKILHEVENKPKIPIKIIEDQPESPKPLKPPKPPKPPKGPDNPEEPDSPEEPKETDQPGGPDNPNAGNKKMPTPEEYVTRKEFNEFKDSNNQRLTKIENKVDKLEVKVDKLAEIVQTQGEEIKELKVEQKAQSETLQLILKTLQKMNDRLDRMETRLDKIDSPKLEHHHHHH` , can you help? not failed

Looking for the measured protein production of `MSAECWAALLHDPMTLDMDAVLSDFVRSTGAEPGLARDLLEGKNWDLTAALSDYEQLRQVHTANLPHVFNEGRG` , can you help? not failed

Looking for the measured protein production of `GGDTELSDSPTLPLNSILAGNCIEILKTLPDNSVDLIFADPPYNLQLSGELFRPEGSRVDAVNNAWDKFDTFAAYDHFTRLWLKEAHRVLKEDGTIWVIGSYHNIFRVGTALQDQGFWILNDIIWRKSNPMPNFKGRRFTNAHETLIWASKSDKSRYVFNYASLKTFNDDLQMRSDWLLPICSGNERLKGENGQKIHPTQKPEALLYRIILASSRPDDVILDPFFGTGTTGVIARHLRRHWIGIEQDPTYIKAAQARIDKAEVF` , can you help? not failed
